The reader will find reported IC50 values listed item by item below.
# test.system: AMP-binding enzyme family protein (Yersinia pestis)
# Sequence (Q56950 whole entry): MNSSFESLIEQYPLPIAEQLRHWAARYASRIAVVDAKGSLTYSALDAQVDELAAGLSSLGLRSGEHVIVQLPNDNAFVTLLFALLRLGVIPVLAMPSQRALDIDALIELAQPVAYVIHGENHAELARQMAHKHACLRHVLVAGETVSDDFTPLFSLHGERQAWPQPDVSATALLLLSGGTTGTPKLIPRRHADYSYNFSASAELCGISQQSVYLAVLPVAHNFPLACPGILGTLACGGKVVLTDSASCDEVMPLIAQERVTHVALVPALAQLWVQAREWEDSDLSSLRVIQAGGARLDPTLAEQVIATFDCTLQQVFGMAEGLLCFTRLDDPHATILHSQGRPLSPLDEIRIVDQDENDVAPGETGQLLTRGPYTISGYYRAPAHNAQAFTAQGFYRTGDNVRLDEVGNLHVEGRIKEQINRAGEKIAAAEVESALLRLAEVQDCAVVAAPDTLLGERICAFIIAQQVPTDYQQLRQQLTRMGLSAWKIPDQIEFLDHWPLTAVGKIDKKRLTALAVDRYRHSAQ
Record the value in nM, omitting the unit from your answer.

[
  {
    "test.smiles": "Oc1ccccc1C1=NN(C(=S)Nc2ccccc2)[C@H](c2ccccc2O)C1",
    "test.system": "AMP-binding enzyme family protein (Yersinia pestis)",
    "IC50, nM": 600
  },
  {
    "test.smiles": "Nc1ncnc2c1ncn2[C@@H]1O[C@H](COS(=O)(=O)NC(=O)c2ccccc2O)[C@@H](O)[C@H]1O",
    "test.system": "AMP-binding enzyme family protein (Yersinia pestis)",
    "IC50, nM": 7
  },
  {
    "test.smiles": "COc1cc([C@@H]2CC(c3ccc(O)cc3O)=NN2C(=S)Nc2ccccc2OC)ccc1O",
    "test.system": "AMP-binding enzyme family protein (Yersinia pestis)",
    "IC50, nM": 200
  },
  {
    "test.smiles": "Oc1ccccc1C1=NN(C(=S)Nc2ccccc2)[C@H](c2ccco2)C1",
    "test.system": "AMP-binding enzyme family protein (Yersinia pestis)",
    "IC50, nM": 300
  },
  {
    "test.smiles": "COc1cc([C@@H]2CC(c3ccc(O)cc3O)=NN2C(=S)Nc2ccccc2)ccc1O",
    "test.system": "AMP-binding enzyme family protein (Yersinia pestis)",
    "IC50, nM": 700
  }
]

Param item = COc1cc([C@@H]2CC(c3ccccc3O)=NN2C(=S)Nc2ccccc2C)ccc1O ; retrieve measured IC50.
1000

Param item = COc1ccccc1NC(=S)N1N=C(c2ccc(O)cc2O)C[C@H]1c1ccc(O)cc1 ; retrieve measured IC50.
600

Param item = Oc1ccccc1C1=NN(C(=S)Nc2ccccc2)[C@H](c2ccc(Cl)cc2)C1 ; retrieve measured IC50.
700

Param item = Oc1ccc([C@@H]2CC(c3ccc(O)cc3O)=NN2C(=S)Nc2ccccc2)cc1 ; retrieve measured IC50.
1000

Param item = NC(=S)N1N=C(c2ccccc2O)C[C@H]1c1ccc(O)cc1 ; retrieve measured IC50.
500

Param item = COc1ccc(NC(=S)N2N=C(c3ccccc3O)C[C@H]2c2ccc(O)c(OC)c2)cc1 ; retrieve measured IC50.
500

Param item = Oc1ccccc1C1=NN(C(=S)Nc2ccccc2)[C@H](c2ccccc2)C1 ; retrieve measured IC50.
500

Param item = Oc1ccccc1C1=NN(C(=S)Nc2ccccc2)[C@H](c2cccs2)C1 ; retrieve measured IC50.
2000

Param item = Cc1ccccc1NC(=S)N1N=C(c2ccccc2O)C[C@H]1c1ccc(O)cc1 ; retrieve measured IC50.
700

Param item = COc1ccccc1[C@@H]1CC(c2ccccc2O)=NN1C(=S)Nc1ccccc1 ; retrieve measured IC50.
3000

Param item = COc1cc([C@@H]2CC(c3ccccc3O)=NN2C(=S)Nc2ccc(C)cc2)ccc1O ; retrieve measured IC50.
500

Param item = Oc1ccccc1C1=NN(C(=S)Nc2ccccc2)[C@H](c2ccccc2Cl)C1 ; retrieve measured IC50.
2000

---

The reader will find reported IC50 values listed item by item below.
# Test system: Yersinia pestis
# run.description: Antimicrobial activity against Yersinia pestis KIM6-2082.1+ in presence of iron limiting PMH-D medium
# Format: functional, organism-based
Record the value in nM, omitting the unit from your answer.

Recorded IC50, per entry:
[
  {
    "test.smiles": "COc1ccc(NC(=S)N2N=C(c3ccccc3O)C[C@H]2c2ccc(O)c(OC)c2)cc1",
    "IC50 (nM)": 600
  },
  {
    "test.smiles": "Cc1ccccc1NC(=S)N1N=C(c2ccccc2O)C[C@H]1c1ccc(O)cc1",
    "IC50 (nM)": 3000
  },
  {
    "test.smiles": "COc1ccc(NC(=S)N2N=C(c3ccccc3O)C[C@H]2c2ccccc2O)cc1",
    "IC50 (nM)": 1000
  },
  {
    "test.smiles": "Cc1ccccc1NC(=S)N1N=C(c2ccccc2O)C[C@H]1c1ccccc1O",
    "IC50 (nM)": 2000
  },
  {
    "test.smiles": "COc1ccccc1NC(=S)N1N=C(c2ccccc2O)C[C@H]1c1ccc(O)cc1",
    "IC50 (nM)": 2000
  },
  {
    "test.smiles": "COc1ccccc1NC(=S)N1N=C(c2ccc(O)cc2O)C[C@H]1c1ccc(O)cc1",
    "IC50 (nM)": 700
  }
]

API: value(readout=IC50, system=Yersinia pestis) for record COc1ccc([C@@H]2CC(c3ccccc3O)=NN2C(=S)Nc2ccccc2)cc1
700

API: value(readout=IC50, system=Yersinia pestis) for record COc1ccc(NC(=S)N2N=C(c3ccccc3O)C[C@H]2c2ccc(O)cc2)cc1
700

API: value(readout=IC50, system=Yersinia pestis) for record COc1ccc(NC(=S)N2N=C(c3ccc(O)cc3O)C[C@H]2c2ccc(O)cc2)cc1
400

API: value(readout=IC50, system=Yersinia pestis) for record COc1cc([C@@H]2CC(c3ccccc3O)=NN2C(=S)Nc2ccccc2)ccc1O
2000

API: value(readout=IC50, system=Yersinia pestis) for record Oc1ccc([C@@H]2CC(c3ccc(O)cc3O)=NN2C(=S)Nc2ccccc2)cc1
1000

API: value(readout=IC50, system=Yersinia pestis) for record COc1cc([C@@H]2CC(c3ccccc3O)=NN2C(=S)Nc2ccc(C)cc2)ccc1O
1000

API: value(readout=IC50, system=Yersinia pestis) for record Cc1ccc(NC(=S)N2N=C(c3ccccc3O)C[C@H]2c2ccc(O)cc2)cc1
900

---

# test.system: UniProtKB Q56950
# Sequence (Q56950 whole entry): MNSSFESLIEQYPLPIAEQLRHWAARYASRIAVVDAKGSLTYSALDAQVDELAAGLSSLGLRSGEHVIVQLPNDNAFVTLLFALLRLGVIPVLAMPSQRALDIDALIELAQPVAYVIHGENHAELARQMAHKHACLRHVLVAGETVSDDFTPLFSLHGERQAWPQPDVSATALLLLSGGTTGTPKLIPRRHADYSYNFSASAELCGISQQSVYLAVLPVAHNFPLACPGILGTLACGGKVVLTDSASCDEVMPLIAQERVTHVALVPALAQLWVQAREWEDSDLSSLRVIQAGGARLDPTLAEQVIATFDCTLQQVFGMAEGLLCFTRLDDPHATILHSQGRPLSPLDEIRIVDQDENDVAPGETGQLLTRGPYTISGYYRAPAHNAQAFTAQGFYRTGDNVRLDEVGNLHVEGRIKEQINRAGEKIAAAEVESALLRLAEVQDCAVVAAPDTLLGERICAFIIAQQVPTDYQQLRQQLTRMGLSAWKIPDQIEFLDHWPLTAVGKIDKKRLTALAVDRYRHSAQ
The reader will find reported IC50 values listed item by item below.

Recorded IC50, per entry:
[
  {
    "test.smiles": "COc1ccc(NC(=S)N2N=C(c3ccccc3O)C[C@H]2c2ccc(O)cc2)cc1",
    "IC50": "7000 nM"
  },
  {
    "test.smiles": "Oc1ccccc1[C@@H]1CC(c2ccccc2)=NN1C(=S)Nc1ccccc1",
    "IC50": "> 12500 nM"
  },
  {
    "test.smiles": "COc1ccc([C@@H]2CC(c3ccccc3O)=NN2C(=S)Nc2ccccc2)cc1",
    "IC50": "1000 nM"
  },
  {
    "test.smiles": "COc1ccccc1NC(=S)N1N=C(c2ccccc2O)C[C@H]1c1ccc(O)cc1",
    "IC50": "300 nM"
  },
  {
    "test.smiles": "COc1ccc(NC(=S)N2N=C(c3ccccc3O)C[C@H]2c2ccccc2O)cc1",
    "IC50": "200 nM"
  },
  {
    "test.smiles": "Oc1ccc([C@@H]2CC(c3ccccc3O)=NN2C(=S)Nc2ccccc2)cc1",
    "IC50": "400 nM"
  },
  {
    "test.smiles": "Cc1ccccc1NC(=S)N1N=C(c2ccccc2O)C[C@H]1c1ccccc1O",
    "IC50": "1000 nM"
  },
  {
    "test.smiles": "COc1ccccc1NC(=S)N1N=C(c2ccccc2O)C[C@H]1c1ccccc1O",
    "IC50": "800 nM"
  }
]

Param item = Cc1ccc(NC(=S)N2N=C(c3ccccc3O)C[C@H]2c2ccc(O)cc2)cc1 ; retrieve measured IC50.
400 nM

Reference for the values: ChEMBL document CHEMBL1144812
